Target: GST-AMPKα2/ß1/γ1 complex (full-length human AMPKα2) (Homo sapiens, UniProt P54619+P54646+Q9Y478)
Sequence (P54646 whole entry): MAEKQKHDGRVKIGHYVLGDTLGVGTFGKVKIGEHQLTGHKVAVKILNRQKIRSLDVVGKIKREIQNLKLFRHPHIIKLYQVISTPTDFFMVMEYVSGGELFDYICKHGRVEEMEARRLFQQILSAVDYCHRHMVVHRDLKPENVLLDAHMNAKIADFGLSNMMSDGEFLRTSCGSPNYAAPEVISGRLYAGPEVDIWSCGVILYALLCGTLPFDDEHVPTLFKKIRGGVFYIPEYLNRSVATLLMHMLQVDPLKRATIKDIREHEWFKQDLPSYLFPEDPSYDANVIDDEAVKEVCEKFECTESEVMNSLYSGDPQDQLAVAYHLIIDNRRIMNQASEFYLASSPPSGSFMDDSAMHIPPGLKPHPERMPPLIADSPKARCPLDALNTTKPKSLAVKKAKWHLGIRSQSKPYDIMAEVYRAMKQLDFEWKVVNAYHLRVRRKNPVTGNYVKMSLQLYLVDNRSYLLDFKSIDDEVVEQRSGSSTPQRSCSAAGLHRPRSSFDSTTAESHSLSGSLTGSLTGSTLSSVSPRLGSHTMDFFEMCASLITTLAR
Sequence (Q9Y478 whole entry partner): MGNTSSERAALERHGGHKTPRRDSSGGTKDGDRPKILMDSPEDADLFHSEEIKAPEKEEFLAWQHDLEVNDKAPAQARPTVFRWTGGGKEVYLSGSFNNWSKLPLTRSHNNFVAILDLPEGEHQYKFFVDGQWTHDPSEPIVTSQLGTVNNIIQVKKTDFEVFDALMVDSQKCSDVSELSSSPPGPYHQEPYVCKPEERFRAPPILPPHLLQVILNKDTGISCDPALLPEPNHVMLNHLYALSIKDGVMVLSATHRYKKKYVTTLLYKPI
Sequence (P54619 whole entry partner): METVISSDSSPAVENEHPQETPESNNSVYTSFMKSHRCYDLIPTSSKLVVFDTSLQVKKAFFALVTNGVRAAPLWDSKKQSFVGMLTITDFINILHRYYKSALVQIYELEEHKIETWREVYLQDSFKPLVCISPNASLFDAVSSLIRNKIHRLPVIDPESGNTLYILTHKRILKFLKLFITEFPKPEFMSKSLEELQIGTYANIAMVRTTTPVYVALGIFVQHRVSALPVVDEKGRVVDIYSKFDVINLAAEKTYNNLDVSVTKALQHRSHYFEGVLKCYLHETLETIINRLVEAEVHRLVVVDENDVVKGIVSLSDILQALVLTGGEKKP
Experiment: AMPK high ATP assay (TR-FRET-based AMPK activity inhibition assay)
Settings: ATP concentration of 1 mM; median; read-out: AMPK high ATP assay IC50 [mol/l] (median)
pIC50: −log10 of the molar value.
Binary call on pIC50: satisfied from 8 upward, not satisfied beneath that.

Previously resolved entries follow.
Does pIC50 meet or surpass 8 for CC1=C(C#N)C(c2cc3c(NC(=O)C45C6C7C4C4C5C6C74C(=O)N4CCN(C)CC4)n[nH]c3c(C)c2F)C(C#N)=C(C)N1C (stereo not drawn) ?
not satisfied

Does pIC50 meet or surpass 8 for CC1=C(C#N)C(c2cc3c(NC(=O)c4cc(F)ccc4C(F)(F)F)n[nH]c3c(C)c2F)C(C#N)=C(C)N1C ?
not satisfied

Does pIC50 meet or surpass 8 for CCn1nc(C)cc1C(=O)Nc1n[nH]c2c(I)c(F)c(C3C(C#N)=C(C)N(C)C(C)=C3C#N)cc12 ?
not satisfied

Then this compound:
Does pIC50 meet or surpass 8 for CC1=C(C#N)C(c2cc3c(NC(=O)c4cn(CCN5CCCC5)nc4C(F)(F)F)n[nH]c3c(C)c2F)C(C#N)=C(C)N1C ?
satisfied
